Value source: patent US20070259879A1

Overview of recorded IC50 for various compounds
# System: HIV-1 pseudotyped virus
# measurement description: HIV-1 pseudotyped virus assay (luciferase reporter gene, single cycle of infection)
# Assay type: cell-based
# experimental parameters: Human immunodeficiency virus 1, CCR5, 72 h, read-out: Activity (antiviral activity, IC50)
property label: IC50

{"columns": ["compound", "endpoint result"],
 "data": [
  ["C[C@@H]1CN(C(=O)c2ccccc2)CCN1C(=O)C(=O)c1ccc(-c2ncccn2)cc1 [Example 203]", "< 5 µM"],
  ["C[C@@H]1CN(C(=O)c2ccccc2)CCN1C(=O)C(=O)c1ccc(-c2ccncc2)cc1 [Example 206]", "< 5 µM"],
  ["Cc1ccc(-c2ccc(C(=O)C(=O)N3CCN(C(=O)c4ccccc4)C[C@H]3C)cc2)nc1 [Example 207]", "< 5 µM"],
  ["CC1CN(C(=O)c2ccccc2)CCN1S(=O)(=O)c1ccc(-c2ccc(C#N)cn2)s1 (centres unmarked) [Example 147]", "< 5 µM"],
  ["CC1CN(C(=O)c2ccccc2)CCN1C(=O)C(=O)c1ccc(-c2ccco2)cc1 (centres unmarked) [Example 171]", "< 5 µM"],
  ["Cc1cc(-c2ccc(C(=O)C(=O)N3CCN(C(=O)c4ccccc4)C[C@H]3C)cc2)on1 [Example 102]", "< 5 µM"],
  ["C[C@@H]1CN(C(=O)c2ccccc2)CCN1S(=O)(=O)c1ccc(-c2ccccn2)s1 [Example 168]", "> 5 µM"],
  ["Cc1cc(-c2ccc(C(O)C(=O)N3CCN(C(=O)c4ccccc4)C[C@H]3C)cc2)on1 (some centres unmarked) [Example 235]", "> 5 µM"]
]}
